Let's look at some sequences and their measured self-splicing fitness (ln).
ASSAY_REMARKS: self-splicing fitness, log relative to wild type (ln ratio); higher = more splicing; Tetrahymena group I intron in knt gene, E. coli kanamycin selection, DiMSum; sequences stand for … in CUCUCU…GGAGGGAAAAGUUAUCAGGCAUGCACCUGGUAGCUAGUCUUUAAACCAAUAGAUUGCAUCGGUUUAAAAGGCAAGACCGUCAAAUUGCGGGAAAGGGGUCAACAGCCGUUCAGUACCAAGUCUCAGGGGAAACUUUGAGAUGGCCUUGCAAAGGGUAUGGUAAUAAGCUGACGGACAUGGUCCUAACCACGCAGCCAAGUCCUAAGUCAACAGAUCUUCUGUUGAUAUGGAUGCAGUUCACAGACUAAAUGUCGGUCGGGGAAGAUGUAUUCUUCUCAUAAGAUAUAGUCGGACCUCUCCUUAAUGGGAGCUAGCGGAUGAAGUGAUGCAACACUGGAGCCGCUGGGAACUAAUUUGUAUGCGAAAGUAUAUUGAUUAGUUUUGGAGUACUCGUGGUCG;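 also: selection with 25 µg/mL kanamycin versus none on LB agar overnight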
TEST_CONDITIONS: 30 °C
Could you keep your reply to the number by itself?

Examples with their reported self-splicing fitness (ln) follow.
> print(dat)
               residues  result.value
1  GGAAAGCAAUAUUACGCCAC         -2.68
2  AUUUAGCAAUAUUACGUAUG         -2.35
3  GAUUAGCAAUAUUACGCGCC         -1.37
4  CCAAAGCAAUAUUACGAAGC         -3.15

Now take the following sequence into account.
# self-splicing fitness (ln) (sequence: UAGCAGCAAUAUUACGGACU ) is -1.07
